- Target entity: Bovine PAFR (Bos taurus)
- Construct: expressed in transfected cells; host or cells: BHK cells, transient transfection with lipofectamine, pcDNA3.3-PAFR
- Sequence (Q9TTY5 whole entry): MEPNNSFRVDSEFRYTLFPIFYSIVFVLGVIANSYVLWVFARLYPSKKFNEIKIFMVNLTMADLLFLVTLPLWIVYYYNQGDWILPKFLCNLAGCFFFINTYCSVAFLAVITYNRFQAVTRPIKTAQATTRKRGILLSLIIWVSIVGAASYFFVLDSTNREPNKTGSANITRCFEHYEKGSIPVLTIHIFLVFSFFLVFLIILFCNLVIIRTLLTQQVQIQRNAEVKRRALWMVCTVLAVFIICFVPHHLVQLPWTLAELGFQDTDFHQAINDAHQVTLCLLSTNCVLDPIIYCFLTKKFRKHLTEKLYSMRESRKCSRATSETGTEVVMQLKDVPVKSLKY
- Assay explanation: PAF-mediated intracellular calcium accumulation in BHK cells transiently expressing bovine PAFR
- Type: cell-based
- Details: 10 nM PAF; antagonist 1-100 nM; transfected BHK cells
Result type: block of bovine PAFR function, PAF-mediated intracellular calcium accumulation (FIG. 11)

[in] Write down block of bovine PAFR function, PAF-mediated intracellular calcium accumulation (FIG. 11) measured for item CCOC(=O)[C@H](CC(C)C)N(C)S(=O)(=O)c1ccc(Cn2c(C)nc3cnccc32)cc1
[out] blocked

[in] Write down block of bovine PAFR function, PAF-mediated intracellular calcium accumulation (FIG. 11) measured for item Cc1nnc2n1-c1sc(CCC(=O)N3CCOCC3)cc1C(c1ccccc1Cl)=NC2
[out] blocked

[in] Write down block of bovine PAFR function, PAF-mediated intracellular calcium accumulation (FIG. 11) measured for item Cc1cncc(CN2CCC(=C3c4ccc(Cl)cc4CCc4cccnc43)CC2)c1
[out] blocked
